Data provenance is patent US20250059285A1.

- EXPERIMENTAL SYSTEM: T1, human Gal10-His (human, UniProt Q05315 2-142, limits assumed)
- T1 construct: also called hGal10-His; human Gal10-His tagged; not shown: His tag
- T1 sequence: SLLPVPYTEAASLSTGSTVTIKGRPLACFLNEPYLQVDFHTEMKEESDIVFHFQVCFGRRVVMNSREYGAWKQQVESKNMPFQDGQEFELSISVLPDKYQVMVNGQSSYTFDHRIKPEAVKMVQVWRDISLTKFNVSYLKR
- ASSAY PROCEDURE: competition ELISA on coated Gal10-His; hFab 20 ug/mL, competitor g7B07-hFab-Biot, streptavidin-HRP
For each entry below, report its % Competition against g7B07-Biot value.
Please respond with the number in % and leave the unit unwritten.

## Input Let me know recorded % Competition against g7B07-Biot for g20H09 (Fab) (Fab, V domains shown, same VH/VL) VH: EVQLLESGGGLVQPGGSLRLSCAASGFTFRSYDMSWVRQAPGKGLEWVSAIKWHRITYYADSVKGRFTISRDNSKNTLYLQMNSLRAEDTAVYYCATTHGIGTLGFGSWGQGTLVTVSS VL: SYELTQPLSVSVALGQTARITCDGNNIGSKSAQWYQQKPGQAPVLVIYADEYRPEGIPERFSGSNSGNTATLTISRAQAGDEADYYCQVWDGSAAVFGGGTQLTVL , thanks.
## Output 93.2

## Input Let me know recorded % Competition against g7B07-Biot for g24F02 (human Fab) (Fab, V domains shown, Human Fab backbone (human CH1, human lambda CL); also called germlined 24F02) VH: EVQLLESGGGLVQPGGSLRLSCAASGFTFSSYAMSWVRQAPGKGLEWVSAINNGGGSTSYADSVKGRFTISRDNSKNTLYLQMNSLRAEDTAVYYCAKGLRVGVLGFDYWGQGTLVTVSS VL: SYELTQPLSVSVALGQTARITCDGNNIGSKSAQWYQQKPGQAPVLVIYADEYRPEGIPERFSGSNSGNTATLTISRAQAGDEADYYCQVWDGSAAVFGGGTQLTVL , thanks.
## Output 96.5

## Input Let me know recorded % Competition against g7B07-Biot for g23H09 (Fab) (Fab, V domains shown, same VH/VL) VH: EVQLLESGGGLVQPGGSLRLSCAASGFTFRSYDMSWVRQAPGKGLEWVSAIAQFQHWTYYADSVKGRFTISRDNSKNTLYLQMNSLRAEDTAVYYCATTHGIGTLGFGSWGQGTLVTVSS VL: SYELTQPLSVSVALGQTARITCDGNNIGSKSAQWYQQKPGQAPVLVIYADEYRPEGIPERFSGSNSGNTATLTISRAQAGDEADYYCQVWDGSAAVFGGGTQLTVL , thanks.
## Output 94.3

## Input Let me know recorded % Competition against g7B07-Biot for g24F02_N53A (human Fab) (Fab, V domains shown, Human Fab backbone: human CH1 and human lambda constant domain (pUPEX vectors); also called g24F02_N53A_2W) VH: EVQLLESGGGLVQPGGSLRLSCAASGFTFSSYAMSWVRQAPGKGLEWVSAINAGGGSTSYADSVKGRFTISRDNSKNTLYLQMNSLRAEDTAVYYCAKGLRVGVLGFDYWGQGTLVTVSS VL: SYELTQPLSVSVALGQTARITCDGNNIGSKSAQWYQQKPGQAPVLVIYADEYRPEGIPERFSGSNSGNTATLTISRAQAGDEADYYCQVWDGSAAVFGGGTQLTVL , thanks.
## Output 99
